In this section we review reported z-score values for a set of compounds.
- TARGET OF ASSAY: Homeobox protein Hox-A13 (Mus musculus) (UniProt Q62424)
- Sequence (Q62424 whole entry, looked up): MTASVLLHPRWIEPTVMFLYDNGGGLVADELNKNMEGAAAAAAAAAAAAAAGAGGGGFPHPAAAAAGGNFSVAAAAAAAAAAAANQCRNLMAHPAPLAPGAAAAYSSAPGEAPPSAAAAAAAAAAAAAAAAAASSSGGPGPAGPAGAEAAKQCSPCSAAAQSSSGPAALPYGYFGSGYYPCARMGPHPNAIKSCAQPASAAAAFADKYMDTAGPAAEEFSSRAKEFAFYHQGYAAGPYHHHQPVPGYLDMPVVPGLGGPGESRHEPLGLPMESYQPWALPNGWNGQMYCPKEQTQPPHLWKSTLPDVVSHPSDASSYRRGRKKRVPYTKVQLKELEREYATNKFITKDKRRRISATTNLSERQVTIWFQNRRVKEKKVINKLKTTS
- METHOD NOTES: inhibitors of HoxA13-DNA binding, primary screen, biochemical, fluorescence polarization, labeled oligonucleotide (AID 1185)
- CONDITION INFO: 15 min, higher = more signal, called active from +8 up or from −8 down
EXPERIMENTAL ENDPOINT: z-score

COMPOUND	EXPERIMENTAL ENDPOINT	ASSAY VALUE
CC[C@H]1C2=C3C(CC[C@H]4C(OCc5ccc(F)cc5C(F)(F)F)OC[C@](C)([C@@H]34)N(C(=O)OC(C)(C)C)C2)C2COC(=O)OCC21 (some centres undefined)	z-score	-3.54
C=C(COC)/C(=C/C[C@@H](OC(=O)c1ccncc1)c1cccc(OCCO)c1)c1cnc2ccccc2c1	z-score	-5.6
CC(C)OC(=O)CC(=O)CC(O)c1cccc(C#N)c1 (centres undefined)	z-score	-0.542
COc1ccc([Si](C)(C)[C@H]2[C@H](CCO)O[C@@]3(C(=O)N(Cc4cccc(N5CCCCC5=O)c4)c4ccccc43)[C@@H]2C)cc1	z-score	-5.06
CN1C(=O)C2C(C1=O)C1C=C(c3ccc(CO)cc3)C2C(c2cccs2)N1Cc1cccc(OC(F)(F)F)c1 (centres undefined)	z-score	-8.09
O=C(CS)NCCCCCCNC(=O)[C@H]1C[C@H]2C(=O)N[C@@H](Cc3ccccc3)C(=O)N2[C@H]1c1cccc(OCCO)c1	z-score	-1.03
CCCC[C@@H]1C[C@H]1[C@@H](NC(=O)c1cccnc1)c1ccc(-c2ccccc2)cc1	z-score	-3.43
CCCCC(CC)C(O)C1C=CC2C(=O)N(c3ccccc3)C(=O)C2N1Nc1ccc([N+](=O)[O-])cc1 (centres undefined)	z-score	-3.6
C=CCN1Cc2ccccc2C[C@@]2(N=C(c3ccc(OCCCO)cc3)O[C@H]2c2ccccc2)C1=O	z-score	-3.98
O=c1cccc(-c2cccc(Cl)c2)o1	z-score	-0.814
C[C@H]1ON(c2ccc(C(=O)OC(C)(C)C)cc2)[C@@H](c2ccc(O)cc2)[C@@H]1C(=O)N1C(=O)OC[C@@H]1c1ccccc1	z-score	-4.21
COC(=O)C1(Cc2ccccc2)C=C2C(=C(c3ccccc3)C(=O)C2C)CN1 (centres undefined)	z-score	-9.2
CC(C)(C)N1CC=CC23O[C@@H]4C=CCOC(=O)[C@@H]4[C@H]2C(=O)N(CCCO)[C@@H]3C1=O (some centres undefined)	z-score	-3.12
C=CCNC(=O)[C@@H]1[C@H]2C(=O)O[C@H](c3ccccc3)[C@H](c3ccccc3)N2[C@H](c2ccc(OCCO)cc2)[C@@]12C(=O)N(C(=O)OCCOC)c1ccc(C#CC3=CCCCC3)cc12	z-score	0.713
COC(=O)C[C@H]1O[C@]2(C(=O)N(C)c3ccccc32)[C@@H](C)[C@@H]1[Si](C)(C)c1ccc(C)cc1	z-score	-5.95
C=CCOC(=O)[C@@H]1[C@H]2C(=O)O[C@H](c3ccccc3)[C@H](c3ccccc3)N2[C@H](c2ccc(OCCOC(=O)[C@H]3C[C@H]4C(=O)N[C@@H](CCCC[N+](C)(C)C)C(=O)N4[C@H]3c3ccc(O)cc3)cc2)[C@@]12C(=O)Nc1ccc(I)cc12	z-score	-0.103
COc1ccc([Si](C)(C)[C@@H]2[C@@H](CCO)O[C@]3(C(=O)N(Cc4cccc(N5C(=O)c6cccc7cccc5c67)c4)c4ccccc43)[C@H]2C)cc1	z-score	-1.52
CC(C)CN1C(=O)[C@@]2(Cc3ccccc31)c1ccccc1C(=O)N(Cc1ccccc1C(F)(F)F)[C@H]2c1ccc(CO)cc1	z-score	0.0026
Cc1ccc(S[C@]2(C(=O)NCCN3CCOCC3)CC(=O)N(Cc3ccccc3C(F)(F)F)[C@@H]2c2ccc(CO)cc2I)cc1	z-score	-3.32
COc1ccc(C#Cc2ccc3c(c2)[C@]2(C(=O)N3)[C@H](C(=O)N3CCc4cc(OC)c(OC)cc4C3)[C@H]3C(=O)O[C@H](c4ccccc4)[C@H](c4ccccc4)N3[C@@H]2c2ccc(O)cc2)cc1	z-score	-1.05
C=CC[C@@]1(C(=O)N2CCCCC2)N=C(c2ccc(OCCCO)cc2)O[C@@H]1c1ccccc1	z-score	-5.99
NC(N)=NCc1cn(CCc2c[nH]c3ccccc23)nn1	z-score	-2.09
C#CCNC(=O)[C@H](Cc1ccccc1)NC(=O)[C@@H](N=[N+]=[N-])C(C)C	z-score	-0.747
COc1c(C)cc(-c2cc3c(c(Cc4ccccc4)n2)[Si](C(C)C)(C(C)C)OC3)cc1C	z-score	0.472
C[C@]1(C(=O)O)c2ccccc2C(=O)N(Cc2ccccc2)[C@H]1c1ccc(CO)cc1	z-score	-1.72
C=C(C(=O)CC[C@H](OC(=O)c1cccnc1)c1cccc(OCCO)c1)C(C)C	z-score	-3.82
CN(C)CCCCNC(=O)[C@H]1C[C@H]2C(=O)N[C@@H](CCCCN(C)C)C(=O)N2[C@H]1c1cccc(OCCO)c1	z-score	-3.26
CO[C@H]1O[C@H](CO)[C@@H](OC(=O)Nc2ccc(C(F)(F)F)cc2)[C@H](OC(=O)Nc2ccc3c(c2)OCO3)[C@H]1OC(=O)Nc1ccc2c(c1)OCO2	z-score	-3.94
COCCOC(=O)N1C(=O)[C@@]2(c3cc(C#CC4(O)CCCCCC4)ccc31)[C@H](C(N)=O)[C@H]1C(=O)O[C@H](c3ccccc3)[C@H](c3ccccc3)N1[C@@H]2c1ccc(O)cc1	z-score	-2.76
